# credit: PubChem BioAssay AID330

# System: P388 leukemia ip, CD2F1 mice, survival T/C
# PROTOCOL_DESCRIPTION: NCI In Vivo Anticancer Drug Screen. Data for tumor model P388 Leukemia (intraperitoneal) in CD2F1 (CDF1) mice
# REPORTED_CONDITIONS: endpoint: median survival time; dose: 50.0 mg/kg/injection; schedule: Q01DX009 (ip); vehicle: saline; higher = longer survival
Inconclusive results and toxic doses are left out.
Each item that follows carries a reported T/C.
OBSERVATION_TYPE: T/C

O=N[O-].[Co].[NH2-].[NH2-].[NH2-].[NH2-].[NH2-]: 95 % of control
CC(C)C(=O)CP(=O)(O)O: 106 % of control
C#CC(C)(O)C(C)(C)C (stereo not drawn): 98 % of control

###

# Test system: P388 leukemia ip, CD2F1 mice, survival T/C
# PROTOCOL_DESCRIPTION: NCI In Vivo Anticancer Drug Screen. Data for tumor model P388 Leukemia (intraperitoneal) in CD2F1 (CDF1) mice
# REPORTED_CONDITIONS: endpoint: median survival time; dose: 400.0 mg/kg/injection; schedule: Q04DX003 (ip); vehicle: Klucel (hydroxypropylcellulose) (HPC); higher = longer survival
Inconclusive results and toxic doses are left out.
OBSERVATION_TYPE: T/C

COC(=O)C1C(C)C2CCCCC2CC1(C)O (stereo not given): 100 % of control
CN(C(=O)C(Cl)Cl)c1ccc(-c2csc(-c3ccc(O)cc3)n2)cc1: 99 % of control
CP1(=S)CC(Br)=C2CCCCC21 (stereo not given): 107 % of control
CN(C)c1ccc(C(=O)C2CCCC(C)(C)C2)cc1 (stereo not given): 91 % of control
O=C(O)c1cccc2c1C1CCC2c2cccc(C(=O)O)c21: 106 % of control

###

# System: P388 leukemia ip, CD2F1 mice, survival T/C
# PROTOCOL_DESCRIPTION: NCI In Vivo Anticancer Drug Screen. Data for tumor model P388 Leukemia (intraperitoneal) in CD2F1 (CDF1) mice
# REPORTED_CONDITIONS: endpoint: median survival time; dose: 400.0 mg/kg/injection; schedule: Q04DX003 (ip); vehicle: saline; higher = longer survival
Toxic doses and inconclusive results are not listed.
OBSERVATION_TYPE: T/C

Cc1ccc(S(=O)(=O)/C=C/C(=O)c2ccc3ccccc3c2)cc1: 100 % of control
CN1/C(=C2\C=CC=C\C2=N/S(=O)(=O)c2ccc(Cl)cc2)Sc2ccccc21: 99 % of control
CCOC(=O)Cc1nnc(N)s1: 104 % of control
Cc1ccccc1C(=Nc1ccccc1)Oc1ccccc1[N+](=O)[O-]: 100 % of control
NC(=O)NC1OC(CO)C(O)C(O)C1O (centres undefined): 100 % of control
CCOC(=O)c1ccc(NCc2cccc([N+](=O)[O-])c2)cc1: 101 % of control
CCCOC(=O)C1(N)CCCC1: 118 % of control
COC(OC)C1(O)CC(C(C)C)OC(=O)N1 (centres undefined): 100 % of control
N=[N+]=CC(=O)CC(N)C(=O)O (centres undefined): 100 % of control

###

# Test system: P388 leukemia ip, CD2F1 mice, survival T/C
# PROTOCOL_DESCRIPTION: NCI In Vivo Anticancer Drug Screen. Data for tumor model P388 Leukemia (intraperitoneal) in CD2F1 (CDF1) mice
# REPORTED_CONDITIONS: endpoint: median survival time; dose: 100.0 mg/kg/injection; schedule: Q01DX009 (ip); vehicle: saline
Toxic doses and inconclusive results are not listed. How the source made its calls: active means survival T/C of 150% or more; inactive means T/C below 125% in these data.
Outcome codes: active, inactive

FC(F)(F)c1cccc(N=Cc2ccc(C=Nc3cccc(C(F)(F)F)c3)cc2)c1: inactive
CN=C(N)NN: inactive
[C-]#[N+]C([N+]#[C-])=C(C)OCC: inactive
N=[N+]=CC(=O)CC(N)C(=O)O (configuration not stated): inactive
O=C1CSc2cc(F)ccc2N1: inactive
O=C(Nc1cccc(Cl)c1Cl)Oc1ccc(Cl)cc1C(=O)c1ccccc1: inactive
FC(F)(F)c1ccccc1N=Cc1cccs1: inactive
N#CC(C#N)=C1Sc2nc3ccc([N+](=O)[O-])cc3nc2S1: inactive
[Br][Rh][Br].[NH-]c1nc2ccc(Br)cc2s1.[NH-]c1nc2ccc(Br)cc2s1.[NH-]c1nc2ccc(Br)cc2s1.[NH-]c1nc2ccc(Br)cc2s1: inactive
Clc1ccccc1C(c1ccccc1)(c1ccccc1)n1ccnc1: inactive
Cc1cnc(C(N)=O)c(=O)[nH]1: inactive
Cc1cc(C)n(-c2nnc(-n3nc(C)cc3C)c3ccccc23)n1: inactive
Cl[Si](Cl)(Cl)CCc1ccccn1: inactive
CN(C)P(=O)(N(C)C)N1CCC1: inactive
CCCCCCCCC[N+]1([O-])CCOCC1: inactive
CCCCCC(CN(C)C)C(/C=C/c1ccccc1Cl)=N\O (configuration not stated): inactive
O/N=C1\CCC2CCCCC2C1 (configuration not stated): inactive
NC(=S)N/N=C/c1ncccc1O: active
COC(=O)C1NC(C(O)C(O)C(O)C(O)CO)SC1(C)C (configuration not stated): inactive
c1ccc2c(c1)CCCN2c1nc(N2CCCC2)nc(N2CCOCC2)n1: inactive
O=C1C=CC(=O)C(N(CCO)CCO)=C1: inactive
CN(C)P(=O)(N=S=NC(C)(C)C)N(C)C: inactive
CSC(=S)N/N=C/c1ccc[nH]1: inactive
CC1=CC(O)CC(C)(C)C1 (configuration not stated): inactive
C=C(C)C(=O)N(CC)CC: inactive
Cc1c(O)cccc1O: inactive
C[N+](C)(N)CCS(N)(=O)=O: inactive

###

# System: P388 leukemia ip, CD2F1 mice, survival T/C
# PROTOCOL_DESCRIPTION: NCI In Vivo Anticancer Drug Screen. Data for tumor model P388 Leukemia (intraperitoneal) in CD2F1 (CDF1) mice
# REPORTED_CONDITIONS: endpoint: median survival time; dose: 50.0 mg/kg/injection; schedule: Q01DX005 (ip); vehicle: saline + Tween-80 + alcohol; higher = longer survival
Inconclusive results and toxic doses are left out.
Measured T/C of individual entries
OBSERVATION_TYPE: T/C

CCN(CC)CCN1c2ccccc2Sc2c1ccc1ccccc21: 112 % of control
C=CCc1cc(/C(CC)=C(/CC)c2ccc(OCCN(CC)CC)c(CC=C)c2)ccc1OCCN(CC)CC: 99 % of control
Nc1c(Cl)ccc2cccnc12: 107 % of control
COc1ccc(C(C)(OC)c2cc(C(C)(C)C)c(O)c(C(C)(C)C)c2)cc1 (stereo unspecified): 104 % of control
COC(=O)c1ccc(C)[n+](C2OC(COC(=O)c3ccccc3)C(OC(=O)c3ccccc3)C2OC(=O)c2ccccc2)c1 (stereo unspecified): 100 % of control
CCCOc1cc2c(cc1C(C)(C)c1ccc(OC)cc1)OCO2: 102 % of control

###

# System: P388 leukemia ip, CD2F1 mice, survival T/C
# PROTOCOL_DESCRIPTION: NCI In Vivo Anticancer Drug Screen. Data for tumor model P388 Leukemia (intraperitoneal) in CD2F1 (CDF1) mice
# REPORTED_CONDITIONS: endpoint: median survival time; dose: 200.0 mg/kg/injection; schedule: Q01DX009 (ip); vehicle: other; higher = longer survival
Toxic doses and inconclusive results are not listed.
OBSERVATION_TYPE: T/C

COc1cc(CC2c3cc(OC)c(OC)cc3CCN2C)c(NC(=O)c2ccc(C(=O)Nc3cc(OC)c(OC)cc3CC3c4cc(OC)c(OC)cc4CCN3C)cc2)cc1OC (centres undefined): 92 % of control
COc1ccc(C(=O)c2ncccc2C)cc1OC: 95 % of control
COC(=O)Nc1cnc(C(=O)O)c(C)c1-c1ccc(OC)c(OC)c1OCc1ccccc1: 103 % of control
CC(=O)OC12CCCCC1C1(CCCCC1)N=[N+]2[O-] (centres undefined): 112 % of control
COC(=O)CCCCc1ccc(CCCCC(=O)OC)c2ccccc12: 97 % of control
[N-]=[N+]=NCC(=O)N1c2ccccc2Sc2ccccc21: 108 % of control
COc1ccccc1N(CCCO)C(=S)Nc1ccccc1: 111 % of control
CCCCCCCCCCCSSCCCCCCCCCCC: 109 % of control
Cc1ccc(S)c(C(O)(C(F)(F)F)C(F)(F)F)c1: 100 % of control

###

# System: P388 leukemia ip, CD2F1 mice, survival T/C
# PROTOCOL_DESCRIPTION: NCI In Vivo Anticancer Drug Screen. Data for tumor model P388 Leukemia (intraperitoneal) in CD2F1 (CDF1) mice
# REPORTED_CONDITIONS: endpoint: median survival time; dose: 120.0 mg/kg/injection; schedule: Q01DX005 (ip); vehicle: Klucel (hydroxypropylcellulose) (HPC); higher = longer survival
Inconclusive results and toxic doses are left out.
# maps each entry to its T/C
OBSERVATION_TYPE: T/C

COc1ccc(N=Cc2c(O)ccc3c2oc2cc(Cl)c(O)c(Cl)c23)cc1: 93 % of control
COc1ccc(NC(=O)Oc2ccc(C#N)cc2)cc1: 117 % of control
CC1=C2C3OC(=O)C(C)C3CCC2(C)C=C(Br)C1=O (stereo unspecified): 98 % of control
O=C(O)CSCC(=O)Nc1cc(C(F)(F)F)cc(C(F)(F)F)c1: 98 % of control
CC(/C=C/c1ccccc1)=N\NC(=O)c1ccccc1O: 95 % of control
CN(C)c1nc(Cl)c2cc(Cl)ccc2n1: 99 % of control
Cc1nc2oc(=O)cc(C)c2c(=O)[nH]1: 96 % of control
O=C(O)/C=C(/CC(=O)O)c1ccc(O)cc1: 102 % of control
NC(=O)C(N)CCCC1NC(=S)N(c2ccccc2)C1=O (stereo unspecified): 93 % of control
CCOC(=O)CCC(=O)Oc1ccc2c(c1OC(=O)CCC(=O)OCC)C(=O)c1ccccc1C2=O: 97 % of control
O=c1c(Cc2ccccc2)c([O-])[n+](Cc2ccccc2)c(-c2ccccc2)n1-c1ccccc1: 91 % of control
